FYI, the data here is from patent US20240025849A1.

Each record here notes measured IC50.
test system: primary cultured neonatal microglia; experiment: LPS induced NO release, Griess assay, laboratory scaled setup; assay type: cell-based, mouse; conditions: Mus musculus, Microglia, inhibitors of NO production, murine primary cultured neonatal microglia; read-out: IC50
assay endpoint: IC50 (nM)

structure string: COc1ccc([C@H](NC(=O)[C@@H]2CCCN2C(=O)OCc2ccccc2)C(=O)Nc2ccc3c(c2)CCO3)cc1
assay system: primary cultured neonatal microglia
endpoint unit: nM
observed: 231

structure string: COc1ccc([C@H](NC(=O)[C@@H]2CCCN2C(=O)OCc2ccccc2)C(=O)Nc2cnc(C3CC3)nc2)cc1
assay system: primary cultured neonatal microglia
endpoint unit: nM
observed: 1910

structure string: COc1ccc([C@H](NC(=O)[C@@H]2CCCN2C(=O)OCc2ccccc2)C(=O)Nc2cc3n(n2)CCCC3)cc1
assay system: primary cultured neonatal microglia
endpoint unit: nM
observed: 65.5

structure string: COc1ccc(NC(=O)[C@@H](NC(=O)[C@@H]2CCCN2C(=O)CCc2ccccn2)c2ccc(OC)cc2)cc1
assay system: primary cultured neonatal microglia
endpoint unit: nM
observed: 6880

structure string: COc1ccc(NC(=O)[C@@H](NC(=O)[C@@H]2CCCN2C(=O)OC(C)(C)C)c2ccc(OC)cc2)cc1
assay system: primary cultured neonatal microglia
endpoint unit: nM
observed: 3300

structure string: COc1ccc(NC(=O)[C@@H](NC(=O)[C@@H]2CCCN2C(=O)OCc2ccccc2)c2ccccc2)cc1
assay system: primary cultured neonatal microglia
endpoint unit: nM
observed: 122

structure string: COc1ccc(NC(=O)[C@@H](NC(=O)[C@@H]2CCCN2C(=O)CCc2ccc(F)cc2)c2ccc(OC)cc2)cc1
assay system: primary cultured neonatal microglia
endpoint unit: nM
observed: 54.8

structure string: COc1ccc(NC(=O)[C@@H](NC(=O)[C@@H]2CCCN2C(=O)CCC2CCOCC2)c2ccc(OC)cc2)cc1
assay system: primary cultured neonatal microglia
endpoint unit: nM
observed: 117

structure string: COc1ccc(NC(=O)[C@@H](NC(=O)[C@@H]2CCCN2C(=O)COc2ccccc2)c2ccc(OC)cc2)cc1
assay system: primary cultured neonatal microglia
endpoint unit: nM
observed: 71.7

structure string: COc1ccc([C@H](NC(=O)[C@@H]2CCCN2C(=O)OCc2ccccc2)C(=O)Nc2cnc(C)s2)cc1
assay system: primary cultured neonatal microglia
endpoint unit: nM
observed: 2500

structure string: COc1ccc(NC(=O)[C@@H](NC(=O)[C@@H]2CCCN2C(=O)c2ccccc2)c2ccc(OC)cc2)cc1
assay system: primary cultured neonatal microglia
endpoint unit: nM
observed: 1100

structure string: COc1ccc(NC(=O)[C@@H](NC(=O)[C@@H]2CCCN2C(=O)CCc2ccccc2)c2ccc(OC)cc2)cc1
assay system: primary cultured neonatal microglia
endpoint unit: nM
observed: 151

structure string: COc1ccc(NC(=O)[C@@H](NC(=O)[C@@H]2CCCN2C(=O)C2CCCCC2)c2ccc(OC)cc2)cc1
assay system: primary cultured neonatal microglia
endpoint unit: nM
observed: 1080

structure string: COc1ccc(NC(=O)[C@@H](NC(=O)[C@@H]2CCCN2C(=O)CCc2cn(C)c3ccccc23)c2ccc(OC)cc2)cc1
assay system: primary cultured neonatal microglia
endpoint unit: nM
observed: 259

structure string: COc1ccc(NC(=O)[C@@H](NC(=O)[C@@H]2CCCN2C(=O)CCC2CCCCC2)c2ccc(OCCOCCOCCOCCOCCOCCNC(=O)CCCC[C@@H]3SC[C@@H]4NC(=O)N[C@@H]43)cc2)cc1
assay system: primary cultured neonatal microglia
endpoint unit: nM
observed: 8.37

structure string: COc1ccc(NC(=O)[C@@H](NC(=O)[C@@H]2CCCN2C(=O)OCc2ccccc2)c2ccc(OCCOCCOCCOCCOCCOCCNC(=O)CCCC[C@@H]3SC[C@@H]4NC(=O)N[C@@H]43)cc2)cc1
assay system: primary cultured neonatal microglia
endpoint unit: nM
observed: 2360

structure string: COc1ccc(NC(=O)[C@@H](NC(=O)[C@@H]2CCCN2C(=O)CCc2cccs2)c2ccc(OC)cc2)cc1
assay system: primary cultured neonatal microglia
endpoint unit: nM
observed: 122

structure string: COc1ccc(NC(=O)[C@@H](NC(=O)[C@@H]2CCCN2C(=O)CCC2CCCCC2)c2ccc(OC)cc2)cc1
assay system: primary cultured neonatal microglia
endpoint unit: nM
observed: 20.4

structure string: COc1ccc(NC(=O)[C@@H](NC(=O)[C@@H]2CCCN2C(=O)CCCC2CCCCC2)c2ccc(OC)cc2)cc1
assay system: primary cultured neonatal microglia
endpoint unit: nM
observed: 44.9

structure string: COc1ccc(NC(=O)[C@@H](NC(=O)[C@@H]2CCCN2C(=O)Cc2ccccc2)c2ccc(OC)cc2)cc1
assay system: primary cultured neonatal microglia
endpoint unit: nM
observed: 99.6

structure string: COc1ccc(NC(=O)[C@@H](NC(=O)[C@@H]2CCCN2C(=O)CC2CCCCC2)c2ccc(OC)cc2)cc1
assay system: primary cultured neonatal microglia
endpoint unit: nM
observed: 208

structure string: COc1ccc(NC(=O)[C@@H](NC(=O)[C@@H]2CCCN2C(=O)CCc2ccoc2)c2ccc(OC)cc2)cc1
assay system: primary cultured neonatal microglia
endpoint unit: nM
observed: 147

structure string: COc1ccc(NC(=O)[C@@H](NC(=O)[C@@H]2CCCN2C(=O)CCC2CCCC2)c2ccc(OC)cc2)cc1
assay system: primary cultured neonatal microglia
endpoint unit: nM
observed: 16.7

structure string: COc1ccc(NC(=O)[C@@H](NC(=O)[C@@H]2CCCN2C(=O)OCc2ccccc2)c2ccc(OC)cc2)cc1
assay system: primary cultured neonatal microglia
endpoint unit: nM
observed: 107

structure string: COc1ccc(NC(=O)[C@@H](NC(=O)[C@@H]2CCCN2C(=O)CCC(C)C)c2ccc(OC)cc2)cc1
assay system: primary cultured neonatal microglia
endpoint unit: nM
observed: 203

====

test system: primary cultured neonatal microglia; test: LPS induced NO release, Griess assay, laboratory scaled setup; assay type: cell-based, mouse; details: Mus musculus, Microglia, inhibitors of NO production, murine primary cultured neonatal microglia; read-out: active;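 as to active: compounds at or above the IC50 cutoff were called inactive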
assay endpoint: IC50

structure string: COc1ccc([C@H](NC(=O)[C@@H]2CCCN2C(=O)OCc2ccccc2)C(=O)Nc2ccc3nncn3c2)cc1
assay endpoint: IC50
observed: ≥ 10 µM
--
structure string: COc1ccc(NC(=O)[C@@H](NC(=O)[C@@H]2CCCN2)c2ccc(OC)cc2)cc1
assay endpoint: IC50
observed: ≥ 10 µM
--
structure string: COc1ccc(NC(=O)[C@@H](NC(=O)[C@@H]2CCCN2C(C)=O)c2ccc(OC)cc2)cc1
assay endpoint: IC50
observed: ≥ 10 µM
--
structure string: COc1ccc([C@H](NC(=O)[C@@H]2CCCN2C(=O)OCc2ccccc2)C(=O)Nc2ccc3c(c2)n(C)c(=O)n3C)cc1
assay endpoint: IC50
observed: ≥ 10 µM

====

test system: primary cultured neonatal microglia; assay: LPS induced NO release, Griess assay, laboratory scaled setup; format: cell-based, mouse; conditions: Mus musculus, Microglia, inhibitors of NO production, murine primary cultured neonatal microglia; read-out: activity class (IC50)
pIC50: −log10 of the molar value.
Each record here notes measured pIC50.

structure string: COc1ccc(NC(=O)[C@@H](NC(=O)[C@@H]2CCCN2C(=O)CCc2ccccn2)c2ccc(OC)cc2)cc1
pIC50: > 5.00
//
structure string: COc1ccc(NC(=O)[C@@H](NC(=O)[C@@H]2CCCN2C(=O)Cc2ccccc2)c2ccc(OC)cc2)cc1
pIC50: > 7.00
//
structure string: COc1ccc(NC(=O)[C@@H](NC(=O)[C@@H]2CCCCN2C(=O)OCc2ccccc2)c2ccc(OC)cc2)cc1
pIC50: > 6.70
//
structure string: COc1ccc([C@H](NC(=O)[C@@H]2CCCN2C(=O)OCc2ccccc2)C(=O)Nc2cnc(C)s2)cc1
pIC50: > 5.00
//
structure string: COc1ccc(NC(=O)[C@@H](NC(=O)[C@@H]2CCCN2C(=O)CCc2ccccc2)c2ccc(OC)cc2)cc1
pIC50: > 6.70
//
structure string: COc1ccc(NC(=O)[C@@H](NC(=O)[C@@H]2CCCN2C(=O)OCc2ccccc2)c2ccccc2)cc1
pIC50: > 6.70
//
structure string: COc1ccc(NC(=O)[C@@H](NC(=O)[C@@H]2CCCN2C(=O)CCC2CCOCC2)c2ccc(OC)cc2)cc1
pIC50: > 6.70
//
structure string: COc1ccc(NC(=O)[C@@H](NC(=O)[C@@H]2CCCN2C(=O)CCc2ccoc2)c2ccc(OC)cc2)cc1
pIC50: > 6.70
//
structure string: COc1ccc([C@H](NC(=O)[C@@H]2CCCN2C(=O)OCc2ccccc2)C(=O)Nc2cc3n(n2)CCCC3)cc1
pIC50: > 7.00
//
structure string: COc1ccc(NC(=O)[C@@H](NC(=O)[C@@H]2CCCN2C(=O)CCC2CCCCC2)c2ccc(OCCOCCOCCOCCOCCOCCNC(=O)CCCC[C@@H]3SC[C@@H]4NC(=O)N[C@@H]43)cc2)cc1
pIC50: > 7.30
//
structure string: COc1ccc([C@H](NC(=O)[C@@H]2CCCN2C(=O)OCc2ccccc2)C(=O)Nc2ccc3c(c2)CCO3)cc1
pIC50: > 6.00
//
structure string: COc1ccc(NC(=O)[C@@H](NC(=O)[C@@H]2CCCN2C(=O)CCCC2CCCCC2)c2ccc(OC)cc2)cc1
pIC50: > 7.30
//
structure string: COc1ccc(NC(=O)[C@@H](NC(=O)[C@]2(C)CCCN2C(=O)OCc2ccccc2)c2ccc(OC)cc2)cc1
pIC50: > 6.70
//
structure string: COc1ccc(NC(=O)[C@@H](NC(=O)[C@@H]2CCCN2C(=O)COc2ccccc2)c2ccc(OC)cc2)cc1
pIC50: > 7.00
//
structure string: COc1ccc(NC(=O)[C@@H](NC(=O)[C@@H]2CCCN2C(=O)CCc2cn(C)c3ccccc23)c2ccc(OC)cc2)cc1
pIC50: > 6.00
//
structure string: COc1ccc(NC(=O)[C@@H](NC(=O)[C@@H]2CCCN2C(=O)CC2CCCCC2)c2ccc(OC)cc2)cc1
pIC50: > 6.00
//
structure string: COc1ccc([C@H](NC(=O)[C@@H]2CCCN2C(=O)OCc2ccccc2)C(=O)Nc2cnc(C3CC3)nc2)cc1
pIC50: > 5.00
//
structure string: COc1ccc(NC(=O)[C@@H](NC(=O)[C@@H]2CCCN2C(=O)C2CCCCC2)c2ccc(OC)cc2)cc1
pIC50: > 5.00
//
structure string: COc1ccc(NC(=O)[C@@H](NC(=O)[C@@H]2CCCN2C(=O)CCc2ccc(F)cc2)c2ccc(OC)cc2)cc1
pIC50: > 7.00
//
structure string: COc1ccc(NC(=O)[C@@H](NC(=O)[C@@H]2C[C@@H](O)CN2C(=O)CCC2CCCCC2)c2ccc(OC)cc2)cc1
pIC50: > 6.00
//
structure string: COc1ccc(NC(=O)[C@@H](NC(=O)[C@@H]2CCCN2C(=O)c2ccccc2)c2ccc(OC)cc2)cc1
pIC50: > 5.00
//
structure string: COc1ccc(NC(=O)[C@@H](NC(=O)[C@@H]2CCCN2C(=O)CCC(C)C)c2ccc(OC)cc2)cc1
pIC50: > 6.00
